experimental.target: Recombinant human vascular endothelial growth factor (VEGF165) (human, UniProt P15692-4 1-191)
Sequence (P15692 other isoform, or with tags, fused parts or gaps): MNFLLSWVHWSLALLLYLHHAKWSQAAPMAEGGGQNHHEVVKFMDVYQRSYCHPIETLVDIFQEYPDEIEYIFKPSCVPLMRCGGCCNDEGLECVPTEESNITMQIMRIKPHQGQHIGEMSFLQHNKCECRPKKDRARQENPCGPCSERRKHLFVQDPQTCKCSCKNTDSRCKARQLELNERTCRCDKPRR
test.context: both partners purified
pEC50: −log10 of the molar value. code X = not defined here; Az4 = not defined here

binder: {code X}-VEPNCDIHVMWEWECFERL-Az4 (cysteine pairing not given here; reading uncertain, also called anti-VEGF cyclic peptide ligand) [AnchorV (X-VEPNCDIHVMWEWECFERL-Az4)]
pEC50: 6.85
